pIC50 for assorted molecules
- measured-on: ALDH1A1 enzyme (Homo sapiens, UniProt P00352)
- Sequence (P00352 whole entry): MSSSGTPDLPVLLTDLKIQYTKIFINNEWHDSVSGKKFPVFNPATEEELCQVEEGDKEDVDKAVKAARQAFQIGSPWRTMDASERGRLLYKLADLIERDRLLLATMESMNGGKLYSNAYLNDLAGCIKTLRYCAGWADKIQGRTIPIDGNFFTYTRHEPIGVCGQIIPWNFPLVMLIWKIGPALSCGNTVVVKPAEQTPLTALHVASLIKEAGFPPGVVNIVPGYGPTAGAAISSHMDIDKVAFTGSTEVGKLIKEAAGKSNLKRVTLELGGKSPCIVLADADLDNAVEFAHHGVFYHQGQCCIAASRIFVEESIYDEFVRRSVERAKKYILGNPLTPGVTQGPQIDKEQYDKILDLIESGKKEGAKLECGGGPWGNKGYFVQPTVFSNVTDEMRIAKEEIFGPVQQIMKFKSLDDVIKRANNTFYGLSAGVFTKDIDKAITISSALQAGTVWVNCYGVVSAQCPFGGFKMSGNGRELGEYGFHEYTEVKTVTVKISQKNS
- experimental-protocol: ALDH1A1 enzymatic assay (in vitro)
- Assay type: biochemical
- experimental-conditions: ALDH1A1 enzyme 20 nM, NAD+ 1 mM, propionaldehyde 80 μM; read-out: ALDH1A1 IC50
pIC50: −log10 of the molar value.

Worked cases, answers included:
- CCNC(=O)N1CCN(C(=O)c2cnc3ccc(Cl)cc3c2N2CCC(C)(C#N)CC2)CC1: > 6.30
- O=C(C1CC1)C1CCN(C(=O)c2cnc3ccc(F)cc3c2N2CCC3(CC2)OCCO3)CC1: > 6.30
- O=C(c1cnc2c(F)cc(F)cc2c1N1CCC2(CC1)OCCO2)N1CCN(S(=O)(=O)N2CCCC2)CC1: > 6.30
- CCNC(=O)N1CCN(C(=O)c2cnc3ccc(F)cc3c2N2CCC3(CC2)OCCO3)CC1: > 6.30
- N#CC1(c2ccc(-c3c(C(=O)Nc4cnn(CCO)c4)cnc4ccc(F)cc34)cc2)CC1: > 6.30

If you can, please state the reported pIC50 value of `CCNC(=O)N1CCN(C(=O)c2cnc3ccc(F)cc3c2N2CCC(C)(C#N)CC2)CC1` .
> 6.30

// repeat for `C[C@@H]1CN(S(C)(=O)=O)CCN1C(=O)c1cnc2ccc(F)cc2c1N1CCC(C)(C#N)CC1` and report
5.00 to 6.00

// repeat for `CS(=O)(=O)N1CCN(C(=O)c2cnc3c(F)cc(F)cc3c2N2CCC3(CC2)OCCO3)CC1` and report
> 6.30

// repeat for `CN(C)S(=O)(=O)N1CCN(C(=O)c2cnc3cc(F)c(F)cc3c2N2CCC3(CC2)OCCO3)CC1` and report
> 6.30

// repeat for `CC(C)(O)C1(c2ccccc2)CCN(c2c(C(=O)N3CCN(S(C)(=O)=O)CC3)cnc3ccc(F)cc23)CC1` and report
6.00 to 6.30

// repeat for `O=C(c1cnc2ccc(F)cc2c1N1CCC2(CC1)COC2)N1CCN(C(=O)C2CC2)CC1` and report
5.00 to 6.00

// repeat for `CC(=O)N1CCN(C(=O)c2cnc3ccc(F)cc3c2N2CCC3(CC2)OCCO3)CC1` and report
> 6.30

// repeat for `O=C(c1cnc2ccc(F)cc2c1N1CCC2(CC1)OCCO2)N1CCS(=O)(=O)CC1` and report
6.00 to 6.30

###

- measured-on: ALDH1A1 enzyme (Homo sapiens)
- experimental-protocol: ALDH1A1 enzymatic assay (in vitro)
- Format: biochemical
- experimental-conditions: ALDH1A1 enzyme 20 nM, NAD+ 1 mM, propionaldehyde 80 μM; read-out: ALDH1A1 IC50
pIC50: −log10 of the molar value.
readout-type: pIC50

• CC1(C#N)CCN(c2c(C(=O)N3CCN(C(=O)N4CCCC4)CC3)cnc3ccc(F)cc23)CC1 = 5.00 to 6.00

# next molecule below
Value wanted: pIC50 (ALDH1A1 enzyme (Homo sapiens)) of entry `N#CC1(c2ccccc2)CCN(c2c(C(=O)N3CC4(CC(O)C4)C3)cnc3ccc(F)cc23)CC1`
> 6.30

###

pIC50 for assorted molecules
- measured-on: UniProt:P00352
- experimental-protocol: ALDH1A1 enzymatic assay (in vitro)
- Format: biochemical
- experimental-conditions: ALDH1A1 enzyme 20 nM, NAD+ 1 mM, propionaldehyde 80 μM; read-out: ALDH1A1 IC50
- Method: Example 358. ALDH1A1 Enzymatic Assay (In Vitro Assay) 3 μL of ALDH1A1 enzyme (final concentration 20 nM) or assay buffer (100 mM HEPES pH 7.5 with 0.01% Tween 20) were dispensed into a 1,536-well solid-bottom black plate (Greiner Bio One, Monroe, N.C.) followed by pin-tool transfer (23 nL) of candidate inhibitors (final concentration range 968 pM to 57.2 μM) and control (Bay 11-7085, final concentration range 1.31 nM to 2.86 μM). […]
pIC50: −log10 of the molar value. Counter-ions that a name gives are not always drawn.

Worked cases, answers included:
* CCOC(=O)N1CCN(C(=O)c2cnc3ccc(OC)cc3c2N2CCC3(CC2)OCCO3)CC1 | > 6.30
* CCOC(=O)N1CCN(C(=O)c2cnc3ccccc3c2N2CCC(C)(C#N)CC2)CC1 | 6.00 to 6.30
* COc1ccc2ncc(C(=O)N3CCC(OC)CC3)c(N3CCC(OC)CC3)c2c1 [Example 4, TFA] | > 6.30
* CCS(=O)(=O)N1CCN(C(=O)c2cnc3c(F)cc(F)cc3c2N2CCC3(CC2)OCCO3)CC1 | > 6.30
* COc1ccc2ncc(C(=O)N3CCN(C(=O)C4CC4)CC3)c(NC3CCC3)c2c1 [Example 22, TFA] | < 5.00

If you can, please state the reported pIC50 value of `Cc1ccc(C2(C#N)CCN(c3c(C(=O)N4CCN(S(C)(=O)=O)CC4)cnc4ccc(F)cc34)CC2)c(F)c1` .
> 6.30

// repeat for `COc1cc2ncc(C(=O)N3CCN(C(=O)C(C)C)CC3)c(N3CCC(C)(C#N)CC3)c2cc1OC` and report
> 6.30

The values you see were collected from patent US11795177B2.
